Assay: Photophysical properties (UV–Vis absorption and fluorescence spectra)
Format: physicochemical
Details: MeOH, 2 µM, excited at the maximum absorption wavelength
Measured quantity: λem emission maximum wavelength (nm)

# Compound, Result
measured = [
    ("CN(C)c1ccc(/C=C/C(=O)c2ccc(N(C)C)cc2)cc1 [3d]", 555),
    ("COc1ccc(C(=O)/C=C/c2ccc(N(C)C)cc2)cc1 [3a]", 549),
    ("Cc1ccc(C(=O)/C=C/c2ccc(N(C)C)cc2)cc1 [3e]", 547),
    ("CN(C)c1ccc(/C=C/C(=O)c2ccc(O)cc2)cc1 [3c]", 546),
    ("CN(C)c1ccc(/C=C/C(=O)c2ccc(N)cc2)cc1 [3f]", 549),
    ("CN(C)c1ccc(/C=C/C(=O)c2cccs2)cc1 [3b]", 567),
]
